# Tested on: Sonic hedgehog protein (Shh)
# test details: small-molecule binders of Shh protein, primary screen, biochemical, small-molecule microarray, 635/667 nm fluorescence (AID 1151);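 also: Shh protein binding to compounds spotted on small-molecule microarray slides; score combines spot fluorescence intensity with signal-to-noise across triplicate slides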
# protocol conditions: small-molecule microarray binding, 635 nm fluorescence; higher = more signal
property name: composite z-score
Simply state the number, no unit and no words.

INSERT INTO measurements (molecule, property_name, experimental_result) VALUES
  ('C=CCN1C(=O)[C@@]2(Cc3ccccc31)N=C(c1ccc(OCCCO)cc1)O[C@H]2c1ccccc1', 'composite z-score', 1.14),
  ('COc1cc(Br)cc(C(O)C2C=CC3C(=O)N(C)C(=O)C3N2N2CCCCC2)c1OC (stereo not drawn)', 'composite z-score', -1.49),
  ('[N-]=[N+]=NCc1ccccc1C[C@]1(C(=O)N2CCCCC2)N=C(c2ccc(OCCCO)cc2)O[C@H]1c1ccccc1N=[N+]=[N-]', 'composite z-score', -0.27);

Req: Fill blank: measured composite z-score of the molecule [N-]=[N+]=Nc1ccccc1[C@H]1OC(c2ccc(OCCCO)cc2)=N[C@@]1(CCS(=O)(=O)c1ccccc1)C(N)=O is ____.
Resp: 0.176

Req: Fill blank: measured composite z-score of the molecule COC(=O)[C@@]1(Cc2ccc(OC)cc2)[C@H]2c3cc(C(=O)N4CCCC4)n(Cc4ccc(O)c(OC)c4)c3C[C@H]2CN1C(=O)c1ccccc1 is ____.
Resp: -0.466

* * *

# target of assay: Calmodulin-1 (Homo sapiens) (UniProt P0DP23)
# test details: calcium-bound CALM1 binders on microarrays, profiling panel, artefact control for SMM control-protein annotation, biochemical, small-molecule microarray, Cy5-labelled CALM1, plus calcium (AID 1112);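 also: score merges spot fluorescence with signal to noise from triplicate slides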
# protocol conditions: Cy5-CALM1 binding fluorescence, higher = more signal
Could you label it Condition met if measured composite z-score is -0.2 or higher, and Condition not met otherwise?

Below are worked cases with known answers.
INSERT INTO assay_data (compound, label_value) VALUES
  ('O=C(c1ccccc1)N1C(=O)[C@]2(COC(c3ccc(OCCCO)cc3)=N2)Cc2ccccc21', 'Condition met'),
  ('C=C(C)[C@@H]1CC=C(C(O)C2C=CC3C(=O)N(C)C(=O)C3N2Nc2ccccc2)CC1 (some centres undefined)', 'Condition not met'),
  ('CC(C)CNC(=O)[C@@]1(Cc2ccccc2I)c2ccccc2C(=O)N(C2CCCCC2)[C@H]1c1ccc(CO)cc1', 'Condition met'),
  ('O=C1C2C=CC(C(O)c3cc(C(F)(F)F)cc(C(F)(F)F)c3)N(n3cnnc3)C2C(=O)N1Cc1ccccc1 (centres undefined)', 'Condition not met'),
  ('C=CCNC(=O)[C@H]1[C@@H]2C(=O)O[C@@H](c3ccccc3)[C@@H](c3ccccc3)N2[C@@H](c2ccccc2OCCO)[C@]12C(=O)Nc1ccc(C#CCC(C(=O)OC)C(=O)OC)cc12', 'Condition met'),
  ('O=C1C[C@@](C(=O)NCCN2CCOCC2)(c2ccc([N+](=O)[O-])cc2)[C@@H](c2ccc(CO)cc2)N1CC12CC3CC(CC(C3)C1)C2', 'Condition met'),
  ('O=C1NC(=O)C2C1C=CC(C(O)c1cc(C(F)(F)F)cc(C(F)(F)F)c1)N2Nc1ccccn1 (centres undefined)', 'Condition not met'),
  ('CCCC[C@H]1OB(O)C[C@H]2C1=C(COC)C[C@H]1C(=O)N(C)C(=O)[C@H]12', 'Condition not met'),
  ('[N-]=[N+]=NCc1ccccc1[C@@H]1OC(c2ccc(OCCCO)cc2)=N[C@]1(Cc1ccccc1)C(N)=O', 'Condition met'),
  ('COCCOC(=O)N1C(=O)[C@@]2(c3cc(C#CC4(O)CCCCCC4)ccc31)[C@H](c1ccc(OCCO)cc1)N1[C@H](c3ccccc3)[C@H](c3ccccc3)OC(=O)[C@H]1[C@@H]2C(=O)N1CCN(c2ncccn2)CC1', 'Condition met');

Now turn to the next compound.
Req: Hi team, for COCCOC(=O)N1C(=O)[C@@]2(c3ccccc31)[C@H](C(=O)N1CCc3cc(OC)c(OC)cc3C1)[C@H]1C(=O)O[C@H](c3ccccc3)[C@H](c3ccccc3)N1[C@@H]2c1ccc(OCCO)cc1 , is the recorded composite z-score at or above -0.2?
Resp: Condition met

* * *

# target of assay: Calmodulin-1 (Homo sapiens) (UniProt P0DP23)
# test details: CALM1 binders on microarrays, EGTA buffer, profiling panel, biochemical, small-molecule microarray, Cy5-labelled CALM1 (AID 1111);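 also: labelled calmodulin applied in Tris saline Tween buffer holding calcium plus EGTA and DTT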
# protocol conditions: Cy5-CALM1 binding fluorescence, higher = more signal
Could you label it class 1 if measured composite z-score is 1 or higher, and class 0 otherwise?

INSERT INTO measurements (compound, label_value) VALUES
  ('C=C(CCCC)/C(=C/C[C@H](OC(C)=O)c1ccccc1OCCO)c1cc(C(=O)OC)ccc1OC', 'class 0'),
  ('COC(=O)[C@]1(CCC(=O)OC(C)(C)C)N=C(c2ccc(OCCCO)cc2)O[C@@H]1c1ccccc1CN=[N+]=[N-]', 'class 0'),
  ('CCCC[C@H]1OB(O)C[C@H]2C1=C(COC)Cn1c(=O)n(-c3ccccc3)c(=O)n12', 'class 0'),
  ('CC(C)[Si](C#Cc1ccc(Oc2ccccc2)cc1)(O[Si](C#Cc1ccc(Oc2ccccc2)cc1)(C(C)C)C(C)C)C(C)C', 'class 0'),
  ('C=C[C@@H](COC(=O)OC(C)(C)C)N(Cc1ccc(OC)cc1)S(=O)(=O)c1ccc(Br)cc1', 'class 0');

Req: Hi team, for COCCOC(=O)N1C(=O)[C@@]2(c3cc(C#CCC(C(=O)OC)C(=O)OC)ccc31)[C@H](C(=O)N1CCN(c3ncccn3)CC1)[C@H]1C(=O)O[C@H](c3ccccc3)[C@H](c3ccccc3)N1[C@@H]2c1ccccc1OCCO , is the recorded composite z-score at or above 1?
Resp: class 0

Req: Hi team, for O=C1C2C=CC(C(O)c3cccc4ccccc34)N(Nc3ccccc3F)C2C(=O)N1c1ccccc1 (stereo not drawn) , is the recorded composite z-score at or above 1?
Resp: class 1

Req: Hi team, for C=CC(=C)[C@H]1Oc2ccccc2S(=O)(=O)N2CCC[C@@H]12 , is the recorded composite z-score at or above 1?
Resp: class 0

* * *

# target of assay: Homeobox protein Hox-A13 (Mus musculus)
# test details: inhibitors of HoxA13-DNA binding, primary screen, biochemical, fluorescence polarization, labeled oligonucleotide (AID 1185)
# protocol conditions: 15 min, higher = more signal, called active from +8 up or from −8 down
Collected z-score values appear next to each entry.
Simply state the number, no unit and no words.

Example molecules with recorded z-score:
INSERT INTO assay_data (molecule, experimental_result) VALUES
  ('[N-]=[N+]=NCc1ccccc1[C@@H]1OC(c2ccc(OCCCO)cc2)=N[C@]1(Cc1ccccc1)C(N)=O', -3.49),
  ('OCCCC1=CC(c2cccs2)N(Cc2cc3c(cc2Br)OCO3)CC1 (stereo unspecified)', -2.36),
  ('C=C[C@H](C)[C@@H](OC(=O)Nc1ccc(OC)cc1)c1ccc(O)c2ccccc12', -4.35),
  ('COC(=O)[C@@]1(Cc2ccc(OC)cc2)[C@H]2c3cc(C(=O)N4CCCC4)n(Cc4ccc(C)c(F)c4F)c3C[C@H]2CN1C(=O)c1ccccc1', -0.498),
  ('CC(C)NC(=O)[C@@H]1c2ccccc2C(=O)N(C2Cc3ccccc3C2)[C@H]1c1ccc(CO)cc1', -1.94);

Req: Fill blank: measured z-score of the molecule COC(=O)[C@@]1(Cc2ccc(F)cc2)[C@H]2c3cc(C(=O)N(C)C)n(Cc4cc(F)c(F)c(F)c4)c3C[C@H]2CN1C(=O)c1ccccc1 is ____.
Resp: -3.48

Req: Fill blank: measured z-score of the molecule CC(CO)N1C(=O)[C@@H]2C3C(=O)OCCC/C=C\[C@H]3OC23C=CCN(C(C)(C)C)C(=O)[C@@H]13 (stereo partly specified) is ____.
Resp: -4.72

Req: Fill blank: measured z-score of the molecule C=C(COC)/C(=C/C[C@@H](OC(=O)c1ccncc1)c1ccc(CO)o1)c1cc(C(=O)OC)ccc1OC is ____.
Resp: -4.26

* * *

# target of assay: Dickkopf-related protein 1 (Homo sapiens) (UniProt O94907)
# Sequence (O94907 whole entry, looked up): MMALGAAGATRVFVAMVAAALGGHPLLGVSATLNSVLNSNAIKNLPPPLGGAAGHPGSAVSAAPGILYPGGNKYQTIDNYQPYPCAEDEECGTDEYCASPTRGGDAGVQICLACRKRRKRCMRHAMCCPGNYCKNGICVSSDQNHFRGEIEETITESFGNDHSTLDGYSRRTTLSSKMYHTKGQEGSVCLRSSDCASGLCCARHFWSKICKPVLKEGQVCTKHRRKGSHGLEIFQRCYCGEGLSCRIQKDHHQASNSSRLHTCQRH
# test details: DKK1 binders on small-molecule microarrays, primary screen, biochemical, small-molecule microarray, 635 nm fluorescence scan (AID 1106);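 also: score merges emission near 667 nm with signal to noise over three replicate slides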
# protocol conditions: DKK1 binding, higher = more signal
property name: composite z-score

Example compounds with recorded composite z-score:
INSERT INTO measurements (compound, property_name, experimental_result) VALUES
  ('O=C1NC(=O)C2C1C=CC(C(O)c1cccs1)N2Nc1ccc(Cl)cc1Cl (configuration not stated)', 'composite z-score', -0.456),
  ('C=CC1(C(=O)OC)CC=C(C(=O)OC)CC1 (configuration not stated)', 'composite z-score', 0.908),
  ('COc1cc2c(cc1OC)CN(C(=O)[C@H]1[C@@H]3C(=O)O[C@@H](c4ccccc4)[C@@H](c4ccccc4)N3[C@@H](c3ccc(O)cc3)[C@]13C(=O)Nc1ccc(C#CCCO)cc13)CC2', 'composite z-score', -0.0546),
  ('CC(C)[Si](C#Cc1ccc(Oc2ccccc2)cc1)(O[Si](C#Cc1ccc(Oc2ccccc2)cc1)(C(C)C)C(C)C)C(C)C', 'composite z-score', 0.687);

Req: Give recorded composite z-score with Dickkopf-related protein 1 (Homo sapiens) (UniProt O94907) for the following compound: COCCOC(=O)N1C(=O)[C@@]2(c3cc(C#CCCO)ccc31)[C@H](C(N)=O)[C@H]1C(=O)O[C@H](c3ccccc3)[C@H](c3ccccc3)N1[C@@H]2c1ccc(O)cc1
Resp: 0.0665

Req: Give recorded composite z-score with Dickkopf-related protein 1 (Homo sapiens) (UniProt O94907) for the following compound: CC(C)NC(=O)[C@@H]1c2ccccc2C(=O)N(C2Cc3ccccc3C2)[C@H]1c1ccc(CO)cc1
Resp: -0.224

Req: Give recorded composite z-score with Dickkopf-related protein 1 (Homo sapiens) (UniProt O94907) for the following compound: Cc1ccc(S[C@]2(C(=O)NCCCN(C)C)CC(=O)N(Cc3cc(C(F)(F)F)cc(C(F)(F)F)c3)[C@@H]2c2ccc(CO)cc2)cc1
Resp: -1.62
